- targetOfAssay: Solute carrier organic anion transporter family member 2B1 (Homo sapiens, UniProt O94956)
- Sequence (O94956 whole entry): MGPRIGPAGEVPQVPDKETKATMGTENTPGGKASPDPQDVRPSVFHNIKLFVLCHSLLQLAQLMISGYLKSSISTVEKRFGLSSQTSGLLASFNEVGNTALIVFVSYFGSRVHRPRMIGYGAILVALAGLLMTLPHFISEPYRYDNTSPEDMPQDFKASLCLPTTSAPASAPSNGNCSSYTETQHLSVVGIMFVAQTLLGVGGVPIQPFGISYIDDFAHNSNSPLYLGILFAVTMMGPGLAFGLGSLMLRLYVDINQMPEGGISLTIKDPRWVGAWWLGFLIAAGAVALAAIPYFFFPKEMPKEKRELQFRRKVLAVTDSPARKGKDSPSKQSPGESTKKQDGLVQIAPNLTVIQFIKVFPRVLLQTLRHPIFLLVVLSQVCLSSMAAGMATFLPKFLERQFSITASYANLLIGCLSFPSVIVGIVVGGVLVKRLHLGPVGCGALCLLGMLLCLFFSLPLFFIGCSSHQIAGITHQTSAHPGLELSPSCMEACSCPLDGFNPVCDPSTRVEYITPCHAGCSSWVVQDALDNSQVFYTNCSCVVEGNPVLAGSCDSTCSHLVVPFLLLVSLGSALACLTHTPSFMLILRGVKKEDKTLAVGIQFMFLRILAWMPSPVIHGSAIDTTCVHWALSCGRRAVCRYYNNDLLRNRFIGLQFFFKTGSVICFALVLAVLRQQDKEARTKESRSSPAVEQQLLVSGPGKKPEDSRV
- assayName: Inhibition of human liver OATP2B1 expressed in HEK293 Flp-In cells assessed as reduction in [3H]E3S uptake at 20 uM incubated for 5 mins by scintillation counting
- conditionParameters: hek293, 5 min
propertyName: INH (%)
Record the value in %, omitting the unit from your answer.

Examples with answers:
{"columns": ["compound", "readoutUnit", "INH"],
 "data": [
  ["CC[C@H]1OC(=O)[C@H](C)[C@@H](O[C@H]2C[C@@](C)(OC)[C@@H](O)[C@H](C)O2)[C@H](C)[C@@H](O[C@@H]2O[C@H](C)C[C@H](N(C)C)[C@H]2O)[C@](C)(OC)C[C@@H](C)C(=O)[C@H](C)[C@@H](O)[C@]1(C)O", "%", 5.1],
  ["COc1cc([C@@H]2c3cc4c(cc3[C@@H](O[C@@H]3O[C@@H]5CO[C@@H](C)O[C@H]5[C@H](O)[C@H]3O)[C@H]3COC(=O)[C@H]23)OCO4)cc(OC)c1O [ETOPOSIDE]", "%", 6.8],
  ["CC(=O)[C@H]1CC[C@H]2[C@@H]3CCC4=CC(=O)CC[C@]4(C)[C@H]3CC[C@]12C", "%", -362.6],
  ["C[C@]12CC[C@@H]3c4ccc(OS(=O)(=O)O)cc4CC[C@H]3[C@@H]1CCC2=O", "%", 20.8],
  ["CN(C)CC/C=C1/c2ccccc2Sc2ccc(Cl)cc21", "%", 26.6]
]}

Could you now look at the following compound, please?
Give its INH value. Item: CO[C@H]1/C=C/O[C@@]2(C)Oc3c(C)c(O)c4c(O)c(c(/C=N/N5CCN(C)CC5)c(O)c4c3C2=O)NC(=O)/C(C)=C\C=C\[C@H](C)[C@H](O)[C@@H](C)[C@@H](O)[C@@H](C)[C@H](OC(C)=O)[C@@H]1C 21.2

Value source: ChEMBL document CHEMBL2163248
